Molecular target: PK-LDH (pyruvate kinase/lactate dehydrogenase)
Test: Pyruvate kinase assay (auxiliary enzymes PK/LDH)
Conditions: determined for PfIspE IC50 < 100 μM
# IC50 annotations
Measured Endpoint: IC50

- CCn1c(C)cc(-c2csc(Nc3ccc(CN)cc3)n2)c1C [Compound 18]: > 500 µM
- CCn1c(C)cc(-c2csc(Nc3ccc4[nH]cnc4c3)n2)c1C [Compound 19]: > 500 µM

* * *

Molecular target: PfIspE (Plasmodium falciparum, UniProt Q8I470)
Sequence (Q8I470 entry or part of it): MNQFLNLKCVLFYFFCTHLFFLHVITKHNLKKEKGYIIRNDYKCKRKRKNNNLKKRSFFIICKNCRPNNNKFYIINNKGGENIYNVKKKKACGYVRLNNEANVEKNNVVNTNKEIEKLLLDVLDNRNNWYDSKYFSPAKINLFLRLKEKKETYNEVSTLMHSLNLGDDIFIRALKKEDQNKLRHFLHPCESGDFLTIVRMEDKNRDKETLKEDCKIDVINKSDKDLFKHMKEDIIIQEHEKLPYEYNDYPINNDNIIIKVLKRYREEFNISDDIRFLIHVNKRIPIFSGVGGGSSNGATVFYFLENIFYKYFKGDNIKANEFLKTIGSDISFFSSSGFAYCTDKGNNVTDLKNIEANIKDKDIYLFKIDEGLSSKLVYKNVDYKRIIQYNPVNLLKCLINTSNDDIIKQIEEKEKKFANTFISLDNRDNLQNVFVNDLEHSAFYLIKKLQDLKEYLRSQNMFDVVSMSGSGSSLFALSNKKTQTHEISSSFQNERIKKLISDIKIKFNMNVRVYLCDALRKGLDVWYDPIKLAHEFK
Test: Biochemical IspE assay (PK/LDH-coupled, NADH oxidation at 340 nm)
pIC50: −log10 of the molar value.
Measured Endpoint: pIC50

* CCn1c(C)cc(-c2csc(Nc3ccc(CN)cc3)n2)c1C [Compound 18] | 4.07

* * *

Target: PfIspE (Plasmodium falciparum, UniProt Q8I470)
Experiment: Biochemical IspE assay (PK/LDH-coupled, NADH oxidation at 340 nm)
Settings: CDP-ME concentration 100 µM; read-out: IC50 PfIspE
Measured Endpoint: IC50

* CCn1c(C)cc(-c2csc(Nc3ccccc3)n2)c1C [Compound 12] | > 500 µM
* C#CCn1c(C)cc(-c2csc(Nc3ccc(C4(C(F)(F)F)N=N4)cc3)n2)c1C [Compound 23] | 145 µM
* CCn1c(C)cc(-c2csc(Nc3ccccc3C(F)(F)F)n2)c1C [Compound 10] | > 500 µM
* C#CCn1c(C)cc(-c2csc(Nc3cccc(CC(F)(F)F)c3)n2)c1C [Compound 21] | 286 µM
* CCn1c(C)cc(-c2csc(Nc3ccc(C(F)(F)F)cc3)n2)c1C [Compound 11] | 128 µM

* * *

# IC50 annotations
Target: EcIspE (Escherichia coli)
Sequence (P62615 whole entry): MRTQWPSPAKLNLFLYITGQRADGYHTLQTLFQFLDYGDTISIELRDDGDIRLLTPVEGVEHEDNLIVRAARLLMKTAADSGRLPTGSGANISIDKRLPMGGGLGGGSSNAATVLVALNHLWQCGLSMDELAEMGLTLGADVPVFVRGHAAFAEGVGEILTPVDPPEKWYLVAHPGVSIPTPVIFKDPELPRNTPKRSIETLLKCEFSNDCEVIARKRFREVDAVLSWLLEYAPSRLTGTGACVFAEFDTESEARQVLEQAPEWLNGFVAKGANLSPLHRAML
Measured Endpoint: IC50 (µM)

• C#CCn1c(C)cc(-c2csc(Nc3ccc(CC(F)(F)F)cc3)n2)c1C [Compound 22] = 31
• C#CCn1c(C)cc(-c2csc(Nc3ccc(C4(C(F)(F)F)N=N4)cc3)n2)c1C [Compound 23] = 77

* * *

Target: PfIspE (Plasmodium falciparum)
Test: Biochemical IspE assay (PK/LDH-coupled, NADH oxidation at 340 nm)
Details: CDP-ME concentration 100 µM; read-out: IC50 PfIspE
# IC50 annotations
Measured Endpoint: IC50

- CCn1c(C)cc(-c2csc(Nc3ccc(OC)cc3)n2)c1C [Compound 14]: > 500 µM
- CCn1c(C)cc(-c2csc(Nc3ccc(Cl)cc3)n2)c1C [Compound 15]: 111 µM
- CCn1c(C)cc(-c2csc(Nc3ccc(N(C)C)cc3)n2)c1C [Compound 13]: > 500 µM
